Data origin, for the record: PubChem BioAssay

- measurement protocol: S. cerevisiae growth modulation with rapamycin, primary screen, strain BY4716, OD600, 96 h (AID 1091); also: test concentration not given here
- measurement context: called active from +8 up or from −8 down
Calls of active or inactive are those of the source.
Possible outcomes: active, inactive

compound	class label
C=C(/C(=C/C[C@H](OC(C)=O)c1cccc(OCCO)c1)c1cc(C(=O)OC)ccc1OC)C(C)C	inactive
C=C(C(=O)CC[C@H](OC(C)=O)c1ccc(CO)o1)C(C)C	inactive
COc1ccc(/C=C/C(=O)c2cccc(OCC(=O)OC(C)(C)C)c2)cc1	active
C=CC[C@@H](OC(=O)Nc1ccc(SC)cc1)c1ccc(OCCO)cc1	inactive
CCN(CC)c1ccc(N2CC=CC34O[C@@H]5C=CCOC(=O)[C@@H]5[C@H]3C(=O)N(C(C)CO)[C@@H]4C2=O)cc1 (stereo partly drawn)	inactive
C=CCNC(=O)[C@H]1[C@@H]2C(=O)O[C@@H](c3ccccc3)[C@@H](c3ccccc3)N2[C@@H](c2ccccc2OCCO)[C@]12C(=O)N(C(=O)OCCOC)c1ccc(C#CCCO)cc12	inactive
C=CCN1C(=O)[C@@]2(O[C@@H](CCn3cc(CCO)nn3)[C@H]([Si](C)(C)c3ccc(OC)cc3)[C@H]2C)c2cc(NC(=O)c3ccc(OC)cc3)ccc21	inactive
COCCOC(=O)N1C(=O)[C@@]2(c3cc(C#CC4(O)CCCCCC4)ccc31)[C@H](C(=O)NC[C@H](O)c1ccccc1)[C@H]1C(=O)O[C@H](c3ccccc3)[C@H](c3ccccc3)N1[C@@H]2c1ccccc1OCCO	inactive
CC(C)(C)OC(=O)CC[C@@]1(C(=O)NCc2ccccc2)N=C(c2ccc(OCCCO)cc2)O[C@@H]1c1ccccc1CN=[N+]=[N-]	inactive
COc1ccc([Si](C)(C)[C@H]2[C@H](CCO)O[C@@]3(C(=O)N(Cc4ccc(N5C(=O)c6cccc7cccc5c67)cc4)c4ccccc43)[C@@H]2C)cc1	active
CCCCC(=C=CC[C@H](O)c1cccc(OCCO)c1)CCO	inactive
COc1ccc([Si](C)(C)[C@H]2[C@H](CC(=O)N(CCO)Cc3ccccc3)O[C@@]3(C(=O)N(Cc4ccc(N5CCOC5=O)cc4)c4ccccc43)[C@@H]2C)cc1	inactive
Cc1ccc(N2C(=O)c3ccccc3[C@](C)(C(=O)NCC(F)(F)F)[C@@H]2c2ccc(CO)cc2)nc1	inactive

====

- measurement protocol: basal 3T3-L1 adipocyte mitochondrial potential changes, profiling panel, cell-based, JC-1 fluorescence, 3T3-L1 adipocytes, 24 h, 100 nL compound (AID 1168); also: test concentration not given here
- measurement context: JC-1 mitochondrial fluorescence, higher = more signal, called active from +8 up or from −8 down
The source made the active and inactive calls.
Reported z-score values follow for various compounds
value kind: z-score

                              smiles_record  value_kind             result
0  CCCCCCC#C[Si](O[C@H](c1ccccc1)c1cn(Cc2ccccc2)nn1)(C(C)C)C(C)C     z-score    2.09 (inactive)
1  CO[C@H]1O[C@H](CO)[C@@H](OC(=O)CCc2ccccc2)[C@@H]2OC(=O)[C@H](Cc3ccccc3)C/C=C/C[C@@H](Cc3ccccc3)C(=O)O[C@@H]12     z-score   0.886 (inactive)
2  CCCNC(=O)[C@@]1(Sc2ccc(C)cc2)CC(=O)N(Cc2cc(C(F)(F)F)cc(C(F)(F)F)c2)[C@@H]1c1ccc(CO)cc1I     z-score    1.18 (inactive)
3  NCCCCCCNC(=O)[C@@H]1C[C@@H]2C(=O)N[C@@H](Cc3ccccc3)C(=O)N2[C@@H]1c1ccc(O)cc1     z-score  -0.386 (inactive)

====

- measurement protocol: Plasmodium falciparum growth inhibition, primary screen, strain 3D7, DAPI fluorescence, 100 nL (AID 1184);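 also: parasites grown inside human red blood cells in medium with human serum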
- measurement context: P. falciparum 3D7 growth, 3 d, higher = more signal
# cutoff -0.5 applies to z-score; >= gives 1, < gives 0

compound	class label
C=CCN1C(=O)[C@@]2(O[C@@H](CCO)[C@H]([Si](C)(C)c3ccc(OC)cc3)[C@H]2C)c2cc(N3C(=O)c4cccc5cccc3c45)ccc21	0
O=C(NO)[C@]1(Cc2ccccc2)N=C(c2ccc(OCCCO)cc2)O[C@@H]1c1ccccc1	0
C/C=C/[C@@H](CCn1cc(CCO[Si](C(C)C)(C(C)C)C(C)C)nn1)[Si](C)(C)c1ccc(OC)cc1	0
O=C(NCC(F)(F)F)[C@@H]1c2ccccc2C(=O)N(C2Cc3ccccc3C2)[C@H]1c1ccc(CO)cc1	1
C=CCNC(=O)[C@@H]1[C@H]2C(=O)O[C@H](c3ccccc3)[C@H](c3ccccc3)N2[C@H](c2ccc(O)cc2)[C@@]12C(=O)Nc1ccccc12	0
COc1ccc([Si](C)(C)[C@@H]2[C@@H](CCn3cc([C@H](O)c4ccccc4)nn3)O[C@]3(C(=O)N(C)c4c(Br)cc(C)cc43)[C@H]2C)cc1	0
CC(C)C(=C=CC[C@H](O)c1ccc(OCCO)cc1)C[C@H](O)COCc1ccccc1	0
CC1CC/C=C\[C@H]2OC34C=CCN(C(C)C)C(=O)[C@H]3N(C(CO)C(C)C)C(=O)[C@@H]4C2C(=O)O1 (some centres not stated)	1
[N-]=[N+]=NCc1ccccc1C[C@]1(C(=O)NCc2ccccc2)N=C(c2ccc(OCCCO)cc2)O[C@H]1c1ccccc1	0
NCCCCCCNC(=O)[C@@H]1C[C@@H]2C(=O)N[C@@H](Cc3ccccc3)C(=O)N2[C@@H]1c1ccc(O)cc1	1
COC(=O)[C@@]1(CCC(=O)OC(C)(C)C)COC(c2ccc(OCCCO)cc2)=N1	1

====

- measurement protocol: A549 lung cancer cell viability effects, profiling panel, resazurin fluorescence, 24 h, PK04 Diversity Set (AID 1171); also: test concentration not given here
- measurement context: higher = more signal, called active from +8 up or from −8 down
Would you mind sorting the entries by z-score according to these classes? bottom: < -1; middle: ≥ -1 and < 0.8; top: ≥ 0.8

molecule	class label
COCCOC(=O)N1C(=O)[C@@]2(c3ccccc31)[C@H](C(=O)Nc1nc3ccccc3s1)[C@H]1C(=O)O[C@H](c3ccccc3)[C@H](c3ccccc3)N1[C@@H]2c1ccc(O)cc1	middle
COc1ccc([Si](C)(C)[C@H]2[C@H](CCO)O[C@@]3(C(=O)N(Cc4ccc(N5C(=O)c6cccc7cccc5c67)cc4)c4ccccc43)[C@@H]2C)cc1	bottom
COc1ccc(C#Cc2ccc3c(c2)[C@]2(C(=O)N3)[C@H](c3ccc(O)cc3)N3[C@H](c4ccccc4)[C@H](c4ccccc4)OC(=O)[C@H]3[C@@H]2C(=O)N2CCN(c3ncccn3)CC2)cc1	middle
NC(=O)N1C(=O)C2C(C1=O)C1C=C(c3ccc(CO)cc3)C2C(C2CC2)N1Cc1cc2c(cc1Br)OCO2 (stereo not drawn)	middle
C=CCNC(=O)[C@@H]1[C@H]2C(=O)O[C@H](c3ccccc3)[C@H](c3ccccc3)N2[C@H](c2ccc(O)cc2)[C@@]12C(=O)Nc1ccc(C#Cc3ccc(OC)cc3)cc12	bottom
O=C(NO)[C@]1(Cc2ccccc2)N=C(c2ccc(OCCCO)cc2)O[C@@H]1c1ccccc1	top
COc1ccc([Si](C)(C)[C@@H]2[C@@H](CC(=O)N3CCC[C@H]3CO)O[C@]3(C(=O)N(Cc4ccc(I)cc4)c4ccccc43)[C@H]2C)cc1	bottom
Cc1ccc(S[C@]2(C(=O)NCCN3CCOCC3)CC(=O)N(Cc3cc(C(F)(F)F)cc(C(F)(F)F)c3)[C@@H]2c2ccc(CO)cc2)cc1	top
CO[C@H]1O[C@H](CO)[C@@H](OC(=O)Nc2ccccc2)[C@H](OC(=O)Nc2ccc3c(c2)OCO3)[C@H]1OC(=O)Nc1ccc2c(c1)OCO2	bottom
CC(C)C(CO)N1C(=O)[C@@H]2C3C(=O)OCCC/C=C\[C@H]3OC23C=CCN(C(C)C)C(=O)[C@@H]13 (stereo partly drawn)	middle
C=C(/C(=C/C[C@H](OC(C)=O)c1cccc(OCCO)c1)c1cc(C(=O)OC)ccc1OC)C(C)C	top
CC(C)[Si](C#C[Si](C(C)C)(C(C)C)C(C)C)(O[C@H](C)c1cn([C@H](C)c2ccccc2)nn1)C(C)C	top
C=CCN1C(=O)[C@]2(O[C@H](CCn3cc([C@H](O)c4ccccc4)nn3)[C@@H]([Si](C)(C)c3ccc(OC)cc3)[C@@H]2C)c2cc(N3CCOC3=O)ccc21	bottom

====

- measured target: Luciferin 4-monooxygenase (Photinus pyralis) (UniProt P08659)
- Sequence (P08659 whole entry, looked up): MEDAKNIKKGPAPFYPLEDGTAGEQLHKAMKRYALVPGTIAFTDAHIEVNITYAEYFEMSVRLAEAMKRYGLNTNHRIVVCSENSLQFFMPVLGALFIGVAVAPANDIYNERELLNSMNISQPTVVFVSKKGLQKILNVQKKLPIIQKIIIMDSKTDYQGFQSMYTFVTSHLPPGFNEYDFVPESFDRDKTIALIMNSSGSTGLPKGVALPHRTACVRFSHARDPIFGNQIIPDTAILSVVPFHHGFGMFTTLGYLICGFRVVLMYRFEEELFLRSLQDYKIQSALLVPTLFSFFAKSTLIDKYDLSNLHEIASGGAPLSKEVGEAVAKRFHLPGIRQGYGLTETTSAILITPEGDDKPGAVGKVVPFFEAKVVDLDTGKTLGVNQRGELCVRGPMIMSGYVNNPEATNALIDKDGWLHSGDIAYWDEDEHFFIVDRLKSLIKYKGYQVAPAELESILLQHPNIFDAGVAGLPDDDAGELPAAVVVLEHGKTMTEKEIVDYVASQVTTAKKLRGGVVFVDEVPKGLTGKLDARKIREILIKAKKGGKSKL
- measurement protocol: firefly luciferase enzyme inhibitors, primary screen, biochemical, luminescence, purified enzyme, 2006 set (AID 1141);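 also: cell-free assay with purified firefly luciferase at 100 ng per well in PBS; test concentration not given here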
- measurement context: SteadyGlo luminescence, 30 min, higher = more signal, called active from +8 up or from −8 down
// condition not met strictly below -1 in z-score; condition met otherwise

molecule	class label
CC(C)[C@@H](C(=O)O)n1cc(-c2ccccn2)nn1	condition met
CO[C@H]1O[C@H](CO)[C@@H](OC(=O)Nc2ccccc2)[C@H](OC(=O)Nc2ccc3c(c2)OCO3)[C@H]1OC(=O)Nc1ccc2c(c1)OCO2	condition not met
CCCCCN1CC=CC23O[C@@H]4/C=C\CCC(C)OC(=O)C4[C@H]2C(=O)N(CCO)[C@@H]3C1=O (stereo partly specified)	condition met
COc1ccc([Si](C)(C)[C@@H]2[C@@H](CC(=O)N3CCC[C@H]3CO)O[C@]3(C(=O)N(Cc4ccc(I)cc4)c4ccccc43)[C@H]2C)cc1	condition met
Cc1ccc(S[C@]2(C(=O)NCC(C)C)CC(=O)N(C(C)C)[C@@H]2c2ccc(CO)cc2)cc1	condition met
C=C(C(=O)CC[C@@H](OC(C)=O)c1ccccc1OCCO)C(C)C	condition not met
COc1c(C)cc(-c2cc3c(c(CCc4ccccc4)n2)[Si](C(C)C)(C(C)C)OC3)cc1C	condition met
CC(C)C(=C=CC[C@@H](O)c1ccc(CO)o1)CCO	condition not met
C=CCNC(=O)[C@H]1[C@@H]2C(=O)O[C@@H](c3ccccc3)[C@@H](c3ccccc3)N2[C@@H](c2ccccc2OCCO)[C@]12C(=O)N(C(=O)OCCOC)c1ccc(C#CCCO)cc12	condition not met
C=CCOC(=O)[C@H]1[C@@H]2C(=O)O[C@@H](c3ccccc3)[C@@H](c3ccccc3)N2[C@@H](c2ccc(OCCOC(=O)[C@H]3C[C@H]4C(=O)N5CCC[C@H]5C(=O)N4[C@H]3c3cccc(OCCO)c3)cc2)[C@]12C(=O)Nc1ccccc12	condition not met
C=CC[C@]1(C(=O)N2CCCCC2)COC(c2ccc(OCCCO)cc2)=N1	condition not met
CC(C)N1CC=CC23O[C@@H]4/C=C\CCCOC(=O)C4[C@H]2C(=O)N(CCCO)[C@@H]3C1=O (stereo partly specified)	condition not met
COc1ccc(C#Cc2ccc3c(c2)[C@]2(C(=O)N3)[C@H](c3ccc(O)cc3)N3[C@H](c4ccccc4)[C@H](c4ccccc4)OC(=O)[C@H]3[C@@H]2C(N)=O)cc1	condition not met
CO[C@H]1O[C@H](CO)[C@@H](OC(=O)Nc2ccccc2)[C@H](OC(=O)Nc2ccccc2-c2ccccc2)[C@H]1OC(=O)Nc1ccccc1-c1ccccc1	condition met
C=C(C1=CCN(S(=O)(=O)c2ccc(C)cc2)C1)[C@@H](OC(C)=O)[C@@H]1CCCN1S(=O)(=O)c1ccccc1[N+](=O)[O-]	condition not met
C=CC[C@@]1(C(=O)NCc2ccccc2)N=C(c2ccc(OCCCO)cc2)O[C@@H]1c1ccccc1	condition not met
COC(=O)C(CC#Cc1ccc2c(c1)[C@]1(C(=O)N2)[C@H](c2ccccc2OCCO)N2[C@H](c3ccccc3)[C@H](c3ccccc3)OC(=O)[C@H]2[C@@H]1C(=O)N1CCCCCCC1)C(=O)OC	condition not met
Cc1ccc(S[C@]2(C(=O)NC3CC3)CC(=O)N(Cc3ccccc3C(F)(F)F)[C@@H]2c2ccc(CO)cc2I)cc1	condition not met
CC(C)(C)OC(=O)CC[C@@]1(C(=O)NCc2ccccc2)N=C(c2ccc(OCCCO)cc2)O[C@@H]1c1ccccc1CN=[N+]=[N-]	condition not met
CO[C@H]1O[C@H](CO)[C@@H](OC(=O)Nc2ccccc2)[C@H](OC(=O)Nc2ccccc2-c2ccccc2)[C@@H]1OC(=O)Nc1ccccc1-c1ccccc1	condition not met
NC(=O)NCC#Cc1ccc2c(c1)[C@]1(C(=O)N2)[C@H](c2ccc(OCCO)cc2)N2[C@H](c3ccccc3)[C@H](c3ccccc3)OC(=O)[C@H]2[C@@H]1C(=O)Nc1nc2ccccc2s1	condition not met
